- experimental.target: 5-hydroxytryptamine receptor 2C (Homo sapiens, UniProt P28335)
- procedure.text: Partial agonist activity at human 5-HT2CR expressed in human Flp-In-T-REx-293 cells assessed as increase in calcium flux incubated for 60 mins followed by incubation for 30 mins in dark by Flou-4 dye based FLIPR assay
- Type: functional, cell-based
- condition: read-out: EC50
pEC50: −log10 of the molar value.
# label = yes if pEC50 >= 6 else no

Worked examples, 4 molecules total:
CC1CNCCC12C=Cc1ccc(Cl)cc1O2 (stereo in doubt; 29a): yes
C1=CC2(CCNCC2)Oc2ccccc21: yes
Cc1cccc2c1C=CC1(CCNCC1)O2: yes
Cc1cccc2c1OC1(C=C2)CCNCC1: no

Given Clc1ccc2c(c1)OC1(C=C2)CCNC1 (configuration not stated) , state whether its pEC50 is at least 6. yes

Given Clc1cccc2c1OC1(C=C2)CCNCC1 , state whether its pEC50 is at least 6. yes

Given Clc1ccc2c(c1)C=CC1(CCNCC1)O2 , state whether its pEC50 is at least 6. yes

Given Clc1ccc2c(c1)OC1(C=C2)CNC1 , state whether its pEC50 is at least 6. no

Given NC1CCC2(C=Cc3ccc(Cl)cc3O2)CC1 (configuration not stated) , state whether its pEC50 is at least 6. no

Given Clc1ccc2c(c1)OC1(C=C2)CCNCC1 , state whether its pEC50 is at least 6. yes

Given COc1ccc2c(c1)OC1(C=C2)CCNCC1 , state whether its pEC50 is at least 6. no

Given Clc1ccc2c(c1)OC1(C=C2)CCCNCC1 (configuration not stated) , state whether its pEC50 is at least 6. no

Given Fc1ccc2c(c1)C=CC1(CCNCC1)O2 , state whether its pEC50 is at least 6. no

Given Brc1ccc2c(c1)OC1(C=C2)CCNCC1 , state whether its pEC50 is at least 6. yes

Given CC1CNCCC12C=Cc1ccc(Cl)cc1O2 (stereo in doubt; 29b) , state whether its pEC50 is at least 6. no

* * *

- experimental.target: 5-hydroxytryptamine receptor 2C (Homo sapiens, UniProt P28335)
- procedure.text: Agonist activity at human 5-HT2CR expressed in human Flp-In-T-REx-293 cells assessed as increase in calcium flux incubated for 60 mins followed by incubation for 30 mins in dark by Flou-4 dye based FLIPR assay
- Format: functional, cell-based
measure: EC50 (nM)
Give the number; nM is assumed, so skip it.

Clc1cccc2c1C=CC1(CCNCC1)O2: 31

Now look at this one.
Note EC50 for the molecule shown: Fc1ccc2c(c1)OC1(C=C2)CCNCC1 158

* * *

- experimental.target: 5-hydroxytryptamine receptor 2B (Homo sapiens)
- Sequence (P41595 whole entry): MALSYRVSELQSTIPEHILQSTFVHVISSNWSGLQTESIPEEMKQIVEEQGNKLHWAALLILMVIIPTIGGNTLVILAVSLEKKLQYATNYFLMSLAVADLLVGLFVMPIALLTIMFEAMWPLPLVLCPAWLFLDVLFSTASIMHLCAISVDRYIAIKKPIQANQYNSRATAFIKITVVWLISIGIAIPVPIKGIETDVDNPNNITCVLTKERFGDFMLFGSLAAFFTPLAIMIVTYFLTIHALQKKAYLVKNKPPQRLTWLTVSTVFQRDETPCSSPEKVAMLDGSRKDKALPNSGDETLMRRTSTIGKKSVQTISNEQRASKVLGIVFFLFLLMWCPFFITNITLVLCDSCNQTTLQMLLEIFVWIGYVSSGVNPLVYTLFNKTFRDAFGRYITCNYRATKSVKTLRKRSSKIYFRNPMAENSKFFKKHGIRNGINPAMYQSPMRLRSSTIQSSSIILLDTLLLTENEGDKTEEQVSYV
- procedure.text: Partial agonist activity at human 5-HT2BR expressed in human Flp-In-T-REx-293 cells assessed as increase in calcium flux incubated for 60 mins followed by incubation for 30 mins in dark by Flou-4 dye based FLIPR assay
Parameter pEC50: see the listing below.
API: returns pEC50 as number; meaning -log10 of concentration in mol/L.

Clc1cccc2c1OC1(C=C2)CCNCC1: 6.33
C1=CC2(CCNCC2)Oc2ccccc21: 6.05

Now look at this one.
Note pEC50 for the compound shown: Clc1cccc2c1C=CC1(CCNCC1)O2 7.16

* * *

- experimental.target: 5-hydroxytryptamine receptor 2C (Homo sapiens) (UniProt P28335)
- procedure.text: Partial agonist activity at human 5-HT2CR expressed in human Flp-In-T-REx-293 cells assessed as increase in calcium flux by measuring maximal efficacy incubated for 60 mins followed by incubation for 30 mins in dark by Flou-4 dye based FLIPR assay relative to control
- Assay type: functional, cell-based
- condition: filed as partial agonist, time 90.0 min
measure: Emax

Worked cases, Emax given:
Cc1cccc2c1C=CC1(CCNCC1)O2: 55.2%
Clc1ccc2c(c1)OC1(C=C2)CCNCC1: 71.1%
Fc1ccc2c(c1)C=CC1(CCNCC1)O2: 49.5%
Clc1ccc2c(c1)OC1(C=C2)CNC1: 58.5%
CC1CNCCC12C=Cc1ccc(Cl)cc1O2 (stereo in doubt; 29a): 80%
Brc1ccc2c(c1)OC1(C=C2)CCNCC1: 72.6%
C[C@@H]1CC2(C=Cc3ccc(Cl)cc3O2)CCN1 (some centres undefined): 82.5%
CC1CNCCC12C=Cc1ccc(Cl)cc1O2 (stereo in doubt; 29b): 73.7%
Fc1cccc2c1OC1(C=C2)CCNCC1: 64.4%
COc1ccc2c(c1)OC1(C=C2)CCNCC1: 50.4%

Now look at this one.
Note Emax for the compound shown: Clc1cccc2c1OC1(C=C2)CCNCC1 75.7%

* * *

Parameter Emax: see the listing below.
- experimental.target: 5-hydroxytryptamine receptor 2C (Homo sapiens)
- Sequence (whole entry): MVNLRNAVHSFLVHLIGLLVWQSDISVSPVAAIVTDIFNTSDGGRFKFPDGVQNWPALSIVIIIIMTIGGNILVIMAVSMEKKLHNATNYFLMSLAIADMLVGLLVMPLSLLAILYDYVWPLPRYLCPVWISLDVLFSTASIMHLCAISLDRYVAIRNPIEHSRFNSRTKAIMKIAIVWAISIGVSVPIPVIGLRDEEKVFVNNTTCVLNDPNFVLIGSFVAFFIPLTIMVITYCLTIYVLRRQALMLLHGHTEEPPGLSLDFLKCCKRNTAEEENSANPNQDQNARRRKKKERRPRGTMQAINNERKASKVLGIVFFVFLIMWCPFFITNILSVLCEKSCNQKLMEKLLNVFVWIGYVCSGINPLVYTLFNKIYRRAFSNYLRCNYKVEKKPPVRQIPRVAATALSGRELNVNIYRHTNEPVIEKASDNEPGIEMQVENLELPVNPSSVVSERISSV
- procedure.text: Partial agonist activity at human 5-HT2CR expressed in human Flp-In-T-REx-293 cells assessed as increase in calcium flux by measuring maximal efficacy incubated for 60 mins followed by incubation for 30 mins in dark by Flou-4 dye based FLIPR assay relative to control
- Assay type: functional, cell-based
- condition: filed as partial agonist, time 90.0 min
Give the number; % is assumed, so skip it.

Clc1ccc2c(c1)OC1(C=C2)CCNC1 (stereo not drawn): 44.7

Note Emax for the compound shown: C1=CC2(CCNCC2)Oc2ccccc21 85.9

Note Emax for the compound shown: NC1CCC2(C=Cc3ccc(Cl)cc3O2)CC1 (stereo not drawn) 69

The reported measurements were obtained from ChEMBL document CHEMBL5357013.
